Target: E3 ubiquitin-protein ligase XIAP (Homo sapiens) (UniProt P98170)
Sequence (P98170 whole entry, looked up): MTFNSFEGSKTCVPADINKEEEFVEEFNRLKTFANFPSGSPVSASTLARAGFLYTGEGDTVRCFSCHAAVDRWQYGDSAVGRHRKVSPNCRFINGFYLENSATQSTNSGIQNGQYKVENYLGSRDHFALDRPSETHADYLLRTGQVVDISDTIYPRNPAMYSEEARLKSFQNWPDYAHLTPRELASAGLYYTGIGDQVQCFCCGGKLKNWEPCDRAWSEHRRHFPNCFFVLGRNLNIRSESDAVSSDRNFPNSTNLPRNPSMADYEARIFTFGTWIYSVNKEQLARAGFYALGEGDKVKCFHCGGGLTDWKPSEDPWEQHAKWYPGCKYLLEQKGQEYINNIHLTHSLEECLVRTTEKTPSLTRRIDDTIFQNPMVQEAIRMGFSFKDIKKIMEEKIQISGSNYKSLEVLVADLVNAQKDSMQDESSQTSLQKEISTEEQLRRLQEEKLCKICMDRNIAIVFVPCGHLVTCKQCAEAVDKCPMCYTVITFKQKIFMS
Experiment: XIAP binders, primary screen, biophysical, small-molecule microarray, fluorescence 635 nm (AID 1181);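 also: score merges 667 nm emission and signal to noise over triplicate slides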
Settings: small-molecule microarray binding, higher = more signal
Note to self: values exactly at -0.09 are label 1. So composite z-score at or above -0.09 is label 1, below is label 0.

- smiles.structure: "COc1ccc([Si](C)(C)[C@@H]2[C@@H](CC(=O)N(CCO)Cc3ccccc3)O[C@]3(C(=O)N(Cc4cccc(I)c4)c4ccccc43)[C@H]2C)cc1"
  classification: "label 1"
- smiles.structure: "COC(=O)C(CC#Cc1ccc2c(c1)[C@]1(C(=O)N2)[C@H](c2ccccc2OCCO)N2[C@H](c3ccccc3)[C@H](c3ccccc3)OC(=O)[C@H]2[C@@H]1C(=O)N1CCN(c2ncccn2)CC1)C(=O)OC"
  classification: "label 1"
- smiles.structure: "CN(C)CCCCNC(=O)[C@H]1C[C@H]2C(=O)N[C@@H](CCCCN(C)C)C(=O)N2[C@H]1c1ccc(O)cc1"
  classification: "label 0"
- smiles.structure: "C=CC[C@@]1(C(=O)NCCCOC)N=C(c2ccc(OCCCO)cc2)O[C@@H]1c1ccccc1CN=[N+]=[N-]"
  classification: "label 1"
- smiles.structure: "[N-]=[N+]=NCc1ccccc1[C@H]1OC(c2ccc(OCCCO)cc2)=N[C@@]1(CCS(=O)(=O)c1ccccc1)C(=O)NCCN1CCOCC1"
  classification: "label 0"
- smiles.structure: "[N-]=[N+]=NCc1ccccc1C[C@@]1(C(N)=O)N=C(c2ccc(OCCCO)cc2)O[C@@H]1c1ccccc1N=[N+]=[N-]"
  classification: "label 1"
